# experiment: rescue of yeast from PfHsp40 toxicity, primary screen, S. cerevisiae, ATP luminescence (AID 504582);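 further: yeast W303a lacking pdr1 and pdr3 grown in galactose medium; growth measured after three days at 30 °C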
# cond: S. cerevisiae expressing PfHsp40, growth rescue, at 12.5 µM, active compounds read high
Among all 340,000 compounds or so, about 2,300 (0.68%) were called active. This is one part of a sample in which actives are shown more often than they occur.
measured_property: growth rescue

Param item = CNC(=S)N1CCC(NC(=O)C(Cc2ccc(F)cc2)NC(C)=O)CC1 (stereo not given) ; retrieve measured growth rescue.
-1.81% (inactive)

Bench note: what growth rescue did COc1ccc2c(c1)CCc1c(C(=O)N3CCc4ccccc4C3)noc1-2 show?
182% (active)

New cases:
Quick one: growth rescue for CC(=O)N1N=C(c2ccncc2)OC1(Cc1ccccc1)Cc1ccccc1 ?
-0.493% (inactive)

Which measured growth rescue value corresponds to O=C(NCCC1=CCCCC1)c1ccc(-n2cncn2)cc1 ?
0.575% (inactive)

Requested read-out: growth rescue. Entry: COc1cc2c(cc1OC)C(C)N(S(=O)(=O)c1cnc(Cl)c(Cl)c1)CC2 (stereo not given)
1.43% (inactive)
